Test: Dissociation constants determined by potentiometry at 25 degree celsius (phenolic group)
Format: physicochemical
recordedEndpoint: PKa1
// no unit, no text: just the number

molecule	PKa1
CCN1CCC[C@H]1CNC(=O)c1c(O)c(Br)cc(Br)c1OC	5.94
CCc1cc(Cl)c(OC)c(C(=O)NC[C@@H]2CCCN2CC)c1O [ETICLOPRIDE]	6.93
CCc1ccc(OC)c(C(=O)NC[C@@H]2CCCN2CC)c1O	8.71
CCc1cc(CC)c(OC)c(C(=O)NC[C@@H]2CCCN2CC)c1O	7.28
CCN1CCC[C@H]1CNC(=O)c1c(O)cccc1OC	8.7

Ask | Tell me the measured PKa1 of CCN1CCC[C@H]1CNC(=O)c1c(OC)ccc(Cl)c1O , please.
Reply | 7.13
